system: SF-268; assay: NCI tumour cell line growth inhibition, 48 h
Active and inactive are the calls of the source. Rule as the data show it: active = GI50 up to about 1.1 µM and inactive = higher.
outcome measure: GI50

compound=CCCC(=O)Nc1ccc2c(c1)CN1C(=O)c3ccccc3C1=N2 observed_result="> 100 µM (inactive)"
compound="O=C1/C(=C/C=C/c2ccccc2)N=C(c2ccccc2)N1C1Nc2cc3c(cc2S1)NC(N1C(=O)/C(=C/C=C/c2ccccc2)N=C1c1ccccc1)S3 (centres undefined)" observed_result="9.68 µM (inactive)"
compound="O=CN(CCN1CCCC1)C1CCc2cc(Cl)c(Cl)cc2C1 (centres undefined)" observed_result="18.5 µM (inactive)"
compound="O=[N+]([O-])c1ccc2c(c1)N=C1OC(c3c[nH]c4ccc(COc5ccccc5)cc34)C(O)=C1N2 (centres undefined)" observed_result="> 100 µM (inactive)"
compound="CCOC(=O)C(C)c1nc2cc(N3CCN(C)CC3)c(F)cc2[nH]c1=O (centres undefined)" observed_result="> 100 µM (inactive)"
compound="CCN(CC)[C@@H]1c2cc3c(cc2C(c2cc(OC)c(O)c(OC)c2)C2C(=O)CO[C@@H]21)OCO3 (some centres undefined)" observed_result="> 100 µM (inactive)"
compound="CC1C[C@H](C)CC(C(O)CC2CC(=O)N(Cc3ccccc3)C(=O)C2)C1O (some centres undefined)" observed_result="> 100 µM (inactive)"
compound=O=C1/C(=C/c2ccccc2)CN(C(=O)C(F)(F)F)C/C1=C\c1ccccc1 observed_result="3.94 µM (inactive)"
compound="NCCNC(=O)CN(CC(=O)O)C1CCCCC1N(CC(=O)O)CC(=O)O (centres undefined)" observed_result="24.4 µM (inactive)"

Values were extracted from ChEMBL document CHEMBL1201862.
